MIC listing for selected molecules.
- System: S. epidermidis (ATCC 12228)
- PROTOCOL_TEXT: MIC susceptibility testing
- Format: cell-based
- EXPERIMENTAL_PARAMETERS: Staphylococcus epidermidis, ATCC12228; read-out: S. epidermidis (ATCC 12228) MIC
OUTCOME_MEASURE: MIC (µg/mL)

>>> numeric_result("Fc1ccc2nc(NCCCN[C@@H]3CCNc4c(Cl)cc(Cl)cc43)[nH]c2n1 [Compound 1717, reference compound]")
0.156
>>> numeric_result("CCn1c(Cc2ccc(OC)cc2Cl)cn(Cc2nc3nc(F)ccc3[nH]2)c1=O [Compound 2114]")
1.25
>>> numeric_result("Fc1ccc2nc(NCCCNCc3cc(Cl)cc(Cl)c3)[nH]c2n1 [Compound 1614]")
5
>>> numeric_result("CCn1c(Cc2ccc(OC)cc2Cl)cn(Cc2nc3nc(Cl)ccc3[nH]2)c1=O [Compound 2093]")
0.625
>>> numeric_result("CC(=O)NC[C@H]1CN(c2ccc(N3CCOCC3)c(F)c2)C(=O)O1 [LNZ, linezolid]")
0.625
>>> numeric_result("COc1cc(Cl)c(-c2cccc3nc(Cc4nc5nc(Cl)ccc5[nH]4)cn23)cc1OC [Compound 2144]")
0.156

====

- Test system: E. faecium VRE (ATCC 51559)
- PROTOCOL_TEXT: MIC susceptibility testing
- Format: cell-based, Enterococcus faecium
- EXPERIMENTAL_PARAMETERS: Enterococcus faecium; read-out: E. faecium VRE (ATCC 51559) MIC
MIC listing for selected molecules.
OUTCOME_MEASURE: MIC

>>> result("Fc1ccc2nc(NCCCNCc3cc(Cl)cc(Cl)c3)[nH]c2n1 [Compound 1614]")
"0.625 µg/mL"
>>> result("Fc1ccc2nc(NCCCN[C@@H]3CCNc4c(Cl)cc(Cl)cc43)[nH]c2n1 [Compound 1717, reference compound]")
"0.156 µg/mL"
>>> result("CCn1c(Cc2ccc(OC)cc2Cl)cn(Cc2nc3nc(F)ccc3[nH]2)c1=O [Compound 2114]")
"0.156 µg/mL"

====

- PROTOCOL_TEXT: Liver microsome stability
- Assay type: in vitro ADME
- EXPERIMENTAL_PARAMETERS: mouse liver microsomes, CD-1 mouse, read-out: Microsome stability: Mouse T½
Note to self: use yes only for half-life at 1 μM readings below 7 min; a reading exactly at 7 min still gets no.

>>> group_label("COc1cc(Cl)c(-c2cccc3nc(Cc4nc5nc(Cl)ccc5[nH]4)cn23)cc1OC")
"yes"
>>> group_label("CCn1c(Cc2ccc(OC)cc2Cl)cn(Cc2nc3nc(F)ccc3[nH]2)c1=O")
"no"
>>> group_label("Fc1ccc2nc(NCCCN[C@@H]3CCNc4c(Cl)cc(Cl)cc43)[nH]c2n1 [Compound 1717, reference compound]")
"no"
>>> group_label("CCn1c(Cc2ccc(Cl)cc2Cl)cn(Cc2nc3nc(F)ccc3[nH]2)c1=O")
"no"
>>> group_label("O=c1[nH]c(Cc2ccc(Cl)cc2Cl)cn1Cc1nc2ccc(F)nc2[nH]1 [Compound 1962, reference compound]")
"no"
>>> group_label("CCn1c(Cc2ccc(OC)cc2Cl)cn(Cc2nc3nc(Cl)ccc3[nH]2)c1=O")
"yes"
>>> group_label("Fc1ccc2nc(NCCCNCc3cc(Cl)cc(Cl)c3)[nH]c2n1")
"yes"

====

- Test system: T. cruzi
- PROTOCOL_TEXT: T. cruzi growth inhibition
- Assay type: cell-based, Trypanosoma cruzi
- EXPERIMENTAL_PARAMETERS: read-out: (E) T. cruzi EC50
OUTCOME_MEASURE: EC50

>>> result("CCn1c(Cc2ccc(Cl)cc2Cl)cn(Cc2nc3ccc(Br)nc3[nH]2)c1=O")
"40.6 nM"
>>> result("CCn1c(C(=O)c2ccc(Cl)cc2Cl)cn(Cc2nc3ccc(Cl)nc3[nH]2)c1=O")
"45.2 nM"
>>> result("COc1cc(-c2cccc3nc(Cc4nc5nc(Br)ccc5[nH]4)cn23)c(Cl)cc1Cl")
"29.7 nM"
>>> result("COc1ccc(-c2cccn3c(=S)n(Cc4nc5nc(Cl)ccc5[nH]4)cc23)c(Cl)c1")
"172 nM"
>>> result("CCn1c(Cc2c(Cl)cc(Cl)cc2OC)cn(Cc2nc3ccc(Cl)nc3[nH]2)c1=O")
"4.59 nM"
>>> result("O=c1n(Cc2nc3ccc(Cl)nc3[nH]2)cc(Cc2ccc(Cl)cc2Cl)n1CC(F)F")
"53.1 nM"
>>> result("O=c1n(Cc2nc3ccc(Cl)nc3[nH]2)cc(Cc2ccc(Cl)cc2Cl)n1CCO")
"71.3 nM"
>>> result("CC(C)(O)Cn1c(Cc2ccc(Cl)cc2Cl)cn(Cc2nc3ccc(Cl)nc3[nH]2)c1=O")
"22.1 nM"
>>> result("COc1cc(Cl)c(Cc2cn(Cc3nc4nc(Cl)ccc4[nH]3)c(=O)n2CC(C)(C)O)cc1OC")
"6.83 nM"
>>> result("COc1ccc(-c2cnc(N)c3nc(Cc4nc5nc(Cl)ccc5[nH]4)cn23)c(Cl)c1")
"638 nM"
>>> result("CCn1c(C(O)c2ccc(OC)cc2Cl)cn(Cc2nc3ccc(Cl)nc3[nH]2)c1=O (stereo not drawn)")
"79.7 nM"
>>> result("COc1ccc(Cc2cn(Cc3nc4nc(Br)ccc4[nH]3)c(=O)n2CC(F)F)c(Cl)c1")
"8.17 nM"
>>> result("COc1cc(Cl)c(-c2nccc3nc(Cc4nc5nc(Cl)ccc5[nH]4)cn23)cc1OC")
"20.6 nM"
>>> result("COc1ccc(Cc2cn(Cc3nc4nc(F)ccc4[nH]3)c(=O)n2CC(F)F)c(Cl)c1")
"41.4 nM"
>>> result("CCn1c(Cc2ccc(Cl)cc2Cl)cn(Cc2nc3ccc(Cl)nc3[nH]2)c1=O")
"32.3 nM"

====

MIC listing for selected compounds.
- System: E. coli (ATCC 25922)
OUTCOME_MEASURE: MIC

>>> result("Fc1ccc2nc(NCCCN[C@@H]3CCNc4c(Cl)cc(Cl)cc43)[nH]c2n1 [Compound 1717, reference compound]")
"> 10 µg/mL"
>>> result("O=C(O)c1cn(C2CC2)c2cc(N3CCNCC3)c(F)cc2c1=O")
"0.039 µg/mL"
>>> result("Fc1ccc2nc(NCCCNCc3cc(Cl)cc(Cl)c3)[nH]c2n1")
"> 10 µg/mL"
>>> result("Clc1cc(Cl)cc(CNCCCNc2nc3ncccc3[nH]2)c1")
"> 10 µg/mL"

====

CC50 at 48 h listing for selected compounds.
- PROTOCOL_TEXT: Cytotoxicity testing on mammalian cells (AlamarBlue, 48 hours)
- Type: cell-based
- EXPERIMENTAL_PARAMETERS: human, HepG2 cells (human hepatocellular carcinoma), read-out: Mamm. cells (HepG2) CC50
OUTCOME_MEASURE: CC50 at 48 h

>>> result("Oc1cc(NCCCNCc2cc(Cl)cc(Cl)c2)nc2ccccc12")
"> 7.5 µg/mL"
>>> result("CC(=O)NC[C@H]1CN(c2ccc(N3CCOCC3)c(F)c2)C(=O)O1")
"> 33.7 µg/mL"
>>> result("O=c1[nH]c(Cc2ccc(Cl)cc2Cl)cn1Cc1nc2ccc(F)nc2[nH]1 [Compound 1962, reference compound]")
"> 19.6 µg/mL"
>>> result("CN[C@H](CC(C)C)C(=O)N[C@H]1C(=O)N[C@@H](CC(N)=O)C(=O)N[C@H]2C(=O)N[C@H]3C(=O)N[C@H](C(=O)N[C@H](C(=O)O)c4cc(O)cc(O)c4-c4cc3ccc4O)[C@H](O)c3ccc(c(Cl)c3)Oc3cc2cc(c3O[C@@H]2O[C@H](CO)[C@@H](O)[C@H](O)[C@H]2O[C@H]2C[C@](C)(N)[C@H](O)[C@H](C)O2)Oc2ccc(cc2Cl)[C@H]1O")
"> 145 µg/mL"
>>> result("Fc1ccc2nc(NCCCN[C@@H]3CCNc4c(Cl)cc(Cl)cc43)[nH]c2n1 [Compound 1717, reference compound]")
"10.4 µg/mL"
>>> result("Fc1ccc2nc(NCCCNCc3cc(Cl)cc(Cl)c3)[nH]c2n1")
"> 18.4 µg/mL"
>>> result("COc1cc(Cl)c(-c2cccc3nc(Cc4nc5nc(Cl)ccc5[nH]4)cn23)cc1OC")
"> 11.3 µg/mL"

====

- Test system: C. parvum
- PROTOCOL_TEXT: C. parvum growth inhibition
- Type: cell-based, Cryptosporidium parvum
- EXPERIMENTAL_PARAMETERS: Cryptosporidium parvum; read-out: (J) C. parvum EC50
Note to self: use Yes only for EC50 readings below 1000 nM; a reading exactly at 1000 nM still gets No.

>>> group_label("O=c1n(Cc2nc3nc(Cl)ccc3[nH]2)cc(Cc2ccc(Cl)cc2Cl)n1CC1(O)CC1")
"No"
>>> group_label("COC(=O)c1c(Cl)ccc2[nH]c(Cc3cn4c(-c5ccc(OC)cc5Cl)cccc4n3)nc12")
"No"
>>> group_label("CC(C)(N)Cn1c(Cc2ccc(Cl)cc2Cl)cn(Cc2nc3nc(Cl)ccc3[nH]2)c1=O")
"No"
>>> group_label("COc1ccc(-c2cccc3c2CN(Cc2nc4c(C#N)c(Cl)ccc4[nH]2)C3)c(Cl)c1")
"No"
>>> group_label("O=c1n(Cc2nc3ccc(F)nc3[nH]2)cc(Cc2ccc(Cl)cc2Cl)n1C1CCCCC1")
"No"
>>> group_label("COc1ccc(-c2nccc3nc(Cc4nc5ccc(Cl)nc5[nH]4)cn23)c(Cl)c1")
"No"
>>> group_label("COc1ccc(-c2cncc3nc(Cc4nc5nc(Cl)ccc5[nH]4)cn23)c(Cl)c1")
"No"
>>> group_label("COc1ccc(Cc2cn(Cc3nc4nc(Cl)ccc4[nH]3)c(=O)n2CC(C)(C)NC(C)=O)c(Cl)c1")
"No"
>>> group_label("COc1ccc(Cc2cn(Cc3nc4nc(Cl)ccc4[nH]3)c(=O)n2CC(C)(C)O)c(Cl)c1")
"Yes"
>>> group_label("COc1ccc(-c2ccc(NC(C)=O)c3nc(Cc4nc5cc(Cl)ccc5[nH]4)cn23)c(Cl)c1")
"Yes"
>>> group_label("CCn1c(C(O)c2ccc(OC)cc2Cl)cn(Cc2nc3ccc(Cl)nc3[nH]2)c1=O (stereo not shown)")
"Yes"
>>> group_label("O=C(O)Cn1c(C(=O)c2ccc(Cl)cc2Cl)cn(Cc2nc3ccc(Cl)nc3[nH]2)c1=O")
"No"
>>> group_label("COc1ccc(-c2cccc3c2CN(Cc2nc4cc(Cl)ccc4[nH]2)C3=O)c(Cl)c1")
"No"
>>> group_label("CCn1c(C(O)c2ccc(Cl)cc2Cl)cn(Cc2nc3nc(Cl)ccc3[nH]2)c1=O (stereo not shown)")
"No"
>>> group_label("COc1ccc(-c2nccn3c(=O)n(Cc4nc5nc(Cl)ccc5[nH]4)cc23)c(Cl)c1")
"No"
>>> group_label("COc1ccc(-c2nccc3nn(Cc4nc5nc(Cl)ccc5[nH]4)cc23)c(Cl)c1")
"No"
